Origin of the recorded values: patent US7074824B2

Protocol Summary: Solubility of β-lapachone in common solvent systems used for intravenous delivery
Assay type: physicochemical
Experimental Setup: Povidone K17 20% diluted 5X in 0.9% saline, aqueous with cosolvent or surfactant or cyclodextrin; Povidone K17 20%, diluted in 0.9% saline; read-out: β-lapachone Solubility, 5X dilution
Measurement Label: solubility (µg/mL)
Numbers only, in µg/mL.

Input: Request the reported solubility associated with CC1(C)CCC2=C(O1)c1ccccc1C(=O)C2=O
Output: 31.2

----------
Tested on: A2780CP
Protocol Summary: MTS growth inhibition assay
Format: cell-based, human
Experimental Setup: A2780CP (resistant) ovarian, Mean ± SE of 3 experiments; read-out: Growth inhibitory activity (50% effective concentration, IC50)
Kindly state IC50 for each of the entries shown.
Give bare numbers, in µM.

Molecule	IC50 (µM)
CC(=O)OC1CC(C)(C)OC2=C1C(=O)C(=O)c1ccccc12 (stereo not drawn) [CO-504, 4-acetoxy β-lapachone]	2.41
CC1OC2=C(C(=O)C(=O)c3ccccc32)C1(C)C (centres unmarked) [CO-506]	2.7

Now for the molecule whose IC50 we want.
Input: Please look up its IC50: CC1(C)CC(O)C2=C(O1)c1ccccc1C(=O)C2=O (stereo not drawn) [CO-503, 4-hydroxy β-lapachone]
Output: 10.5

----------
Task for the reader: assign each of the following compounds its reported Solubility in HPBCD Solution.
Protocol Summary: Solubility in water and in 40% (w/v) HPBCD solution by UV absorbance
Format: physicochemical
Procedure: To determine solubilities, test compounds were first dissolved in ethanol to prepare standard solutions with concentrations in the range 2.5–10 mg/ml, then were diluted with to 10 μg/ml with water. UV scans were obtained of the 10 μg/ml standard solutions, and the wavelength of maximum absorbance and the absorbance at the maximum absorbance wavelength were determined. […] The concentrations of these saturated solutions were then calculated by ratio to the 10 μg/ml ethanolic standard solutions.
Express the reported value numerically, then name its unit.

Example results:
Compound	Solubility in HPBCD Solution
CC(C)=CCC1CC2=C(OC1(C)C)c1ccccc1C(=O)C2=O (stereo not drawn) [3-(3-methyl-2-butenyl)-βL]	4100 µg/mL
CC1(C)C=CC2=C(O1)c1ccccc1C(=O)C2=O [3,4-dehydro-βL]	5800 µg/mL
CC1(C)CC(=O)C2=C(O1)c1ccccc1C(=O)C2=O [Compound 4-keto-βL, 4-keto-βL]	4400 µg/mL
CC1(C)OC2=C(CC1Br)C(=O)C(=O)c1ccccc12 (stereo not drawn) [Compound 3-Bromo-βL, 3-Bromo-βL]	6900 µg/mL
CC1OC2=C(C(=O)C(=O)c3ccccc32)C1(C)C (stereo not drawn) [Dunnione]	17000 µg/mL

Let us examine a further case.
Input: Give the measured Solubility in HPBCD Solution of CC1(C)OC2=C(CC1O)C(=O)C(=O)c1ccccc12 (stereo not drawn) [Compound 3-Hydroxy-βL, 3-Hydroxy-βL] .
Output: 14600 µg/mL

----------
Protocol Summary: Solubility of β-lapachone in common solvent systems used for intravenous delivery
Format: physicochemical
Experimental Setup: Trappsol 20% diluted 5X in 0.9% saline, aqueous with cosolvent or surfactant or cyclodextrin; Trappsol 20%, diluted in 0.9% saline; read-out: β-lapachone Solubility, 5X dilution
Measurement Label: solubility (µg/mL)
One number for each entry, in µg/mL.

Input: Report solubility for CC1(C)CCC2=C(O1)c1ccccc1C(=O)C2=O please.
Output: 30

----------
Test system: HT-29
Protocol Summary: MTS growth inhibition assay
Type: cell-based, human
Experimental Setup: Homo sapiens, HT-29, read-out: Growth inhibitory activity (50% effective concentration, IC50), HT-29 colon, Exp 2
Measurement Label: pIC50
Answers are plain numbers, as −log10 of the molar value.

Input: Give the measured pIC50 of CC1(C)CCC2=C(O1)c1ccccc1C(=O)C2=O [β-lapachone] .
Output: 4.94

----------
Protocol Summary: Solubility in water and in 40% (w/v) HPBCD solution by UV absorbance
Format: physicochemical
Experimental Setup: water, thermodynamic from solid
Measurement Label: solubility at 1 h (µg/mL)
One number for each entry, in µg/mL.

Input: What solubility at 1 h value was documented for this molecule, CC1(C)CCC2=C(O1)c1ccccc1C(=O)C2=O [β-lapachone] ?
Output: 43

----------
System: HT-29
Protocol Summary: MTS growth inhibition assay
Format: cell-based, human
Experimental Setup: HT-29 colon, Exp 1; read-out: Growth inhibitory activity (50% effective concentration, IC50)
Measurement Label: IC50 (µM)
Give bare numbers, in µM.

In the examples that follow, each entry is paired with its recorded IC50.
Compound	IC50 (µM)
CC1OC2=C(C(=O)C(=O)c3ccccc32)C1(C)C (stereo not shown)	17.3
CC(=O)OC1CC(C)(C)OC2=C1C(=O)C(=O)c1ccccc12 (stereo not shown)	14.1

From here, focus on the item given below.
Input: Any idea what IC50 was measured for CC1(C)CC(O)C2=C(O1)c1ccccc1C(=O)C2=O (stereo not drawn) [CO-503, 4-hydroxy β-lapachone] ?
Output: 13.2

----------
Protocol Summary: Solubility in water and in 40% (w/v) HPBCD solution by UV absorbance
Type: physicochemical
Measurement Label: Solubility in Water (µg/mL)
Give bare numbers, in µg/mL.

Kindly give each listed record's Solubility in Water.
1. CC1(C)OC2=C(CC1Br)C(=O)C(=O)c1ccccc12 (stereo not drawn)
2. CC1(C)OC2=C(CC1O)C(=O)C(=O)c1ccccc12 (stereo not drawn) [Compound 3-Hydroxy-βL, 3-Hydroxy-βL]
3. CC1OC2=C(C(=O)C(=O)c3ccccc32)C1(C)C (stereo not drawn)
4. CC1(C)CC(=O)C2=C(O1)c1ccccc1C(=O)C2=O
5. CC(C)=CCC1CC2=C(OC1(C)C)c1ccccc1C(=O)C2=O (stereo not drawn)
6. CC1(C)C=CC2=C(O1)c1ccccc1C(=O)C2=O [3,4-dehydro-βL]

Output:
1: 36; 2: 1381; 3: 476; 4: 503; 5: 67; 6: 24

----------
Protocol Summary: Solubility in water and in 40% (w/v) HPBCD solution by UV absorbance
Type: physicochemical
Experimental Setup: aqueous with cosolvent or surfactant or cyclodextrin, thermodynamic from solid
Measurement Label: solubility at 1 h (mg/mL)
Numbers only, in mg/mL.

Input: Need solubility at 1 h, item CC1(C)CCC2=C(O1)c1ccccc1C(=O)C2=O
Output: 14

----------
Tested on: BxPC-3
Protocol Summary: MTS growth inhibition assay
Format: cell-based, human
Experimental Setup: Homo sapiens; BxPC-3 pancreas, Exp 1; read-out: Growth inhibitory activity (50% effective concentration, IC50)
Description: A2780 and A2780/CP (ovarian); MCF-7 (breast); HT-29 (colon); BxPC-3 (pancreas); and A549 (lung). The human tumor cell lines (purchased from ATCC, Rockville, Md.) were cultured at 37° C. […] Nova Tech, Grand Island, N.Y.) containing 10% fetal bovine serum (FBS, Nova Tech). […] The cell concentration is then determined by measuring the absorbance of the formazan product at 490 nm. Growth inhibition, expressed as IC50, is calculated relative to vehicle-treated control cells.
Measurement Label: IC50

Input: IC50 lookup needed for CCCCCC(=O)OC1=CC(=O)C(=O)c2ccccc21 [CO-507, 4-hexanoyloxy-1,2-naphthoquinone] , thanks.
Output: > 20 µM

----------
Test system: HT-29
Protocol Summary: MTS growth inhibition assay
Assay type: cell-based, human
Experimental Setup: HT-29 colon, Exp 2; read-out: Growth inhibitory activity (50% effective concentration, IC50)
Measurement Label: pIC50
Answers are plain numbers, as −log10 of the molar value.

Example compounds with recorded pIC50:
Compound	Measurement Target	Meas Value
CC1(C)CC(O)C2=C(O1)c1ccccc1C(=O)C2=O (stereo not drawn) [CO-503, 4-hydroxy β-lapachone]	HT-29	4.96
CC1OC2=C(C(=O)C(=O)c3ccccc32)C1(C)C (centres unmarked)	HT-29	4.87

Lab note: next compound to report on.
Input: I am curious: what pIC50 value has been reported for CC(=O)OC1CC(C)(C)OC2=C1C(=O)C(=O)c1ccccc12 (centres unmarked) ?
Output: 5.18

----------
System: BxPC-3
Protocol Summary: MTS growth inhibition assay
Type: cell-based, human
Experimental Setup: BxPC-3 pancreas, Exp 2; read-out: Growth inhibitory activity (50% effective concentration, IC50)
Description: A2780 and A2780/CP (ovarian); MCF-7 (breast); HT-29 (colon); BxPC-3 (pancreas); and A549 (lung). The human tumor cell lines (purchased from ATCC, Rockville, Md.) were cultured at 37° C. […] Nova Tech, Grand Island, N.Y.) containing 10% fetal bovine serum (FBS, Nova Tech). […] The cell concentration is then determined by measuring the absorbance of the formazan product at 490 nm. Growth inhibition, expressed as IC50, is calculated relative to vehicle-treated control cells.
pIC50: −log10 of the molar value.
Measurement Label: pIC50

For orientation, consider the following solved cases.
Molecule	Meas Value
CCCCCC(=O)OC1=CC(=O)C(=O)c2ccccc21 [CO-507, 4-hexanoyloxy-1,2-naphthoquinone]	< 4.70
CC1(C)CC(O)C2=C(O1)c1ccccc1C(=O)C2=O (stereo not drawn) [CO-503, 4-hydroxy β-lapachone]	< 4.70

Next, consider the following molecule.
Input: Please look up its pIC50: CC1(C)CC(=O)C2=C(O1)c1ccccc1C(=O)C2=O [CO-505]
Output: < 4.70
